# hazard score group in Figure 3 per entry for rat primary cortical neurons
Reported Property: hazard score group in Figure 3

Compound | Reported Property | Result
CN1CCC[C@H]1c1cccnc1 | hazard score group in Figure 3 | Non-Neuro Active
O=C1CN=C(c2ccccc2Cl)c2cc([N+](=O)[O-])ccc2N1 | hazard score group in Figure 3 | Neuro Active to hazard
CC(C)C[C@H](CN)CC(=O)O | hazard score group in Figure 3 | Non-Neuro Active
NCC(=O)O | hazard score group in Figure 3 | Neuro Active to hazard
CCCC(C)C1(CC)C(=O)NC(=O)NC1=O (stereo not shown) | hazard score group in Figure 3 | Neuro Active to hazard
CCOC(=O)C1(c2ccccc2)CCN(C)CC1 | hazard score group in Figure 3 | Neuro Active to hazard

Data credit: paper PMC11170107
